- System: Staphylococcus aureus ATCC 29213
- ASSAY OVERVIEW: MIC, microbroth dilution, standard strains
- Type: cell-based
- RECORDED CONDITIONS: ATCC29213, ATCC 29213, read-out: Minimum inhibitory concentration
ENDPOINT NAME: MIC
For clarity, give the value followed by its unit.

Solved cases below.
smiles_representation=C=C[C@]1(C)C[C@@H](OC(=O)CSc2nc(-c3cc[n+](Cc4ccc(C(C)(C)C)cc4)cc3)cs2)[C@]2(C)[C@H](C)CC[C@]3(CCC(=O)[C@H]32)[C@@H](C)[C@@H]1O endpoint_name=MIC value_reported="0.25 µg/mL"
smiles_representation=C=C[C@]1(C)C[C@@H](OC(=O)CSc2nc(-c3cc[n+](Cc4cc(C)cc(C)c4)cc3)cs2)[C@]2(C)[C@H](C)CC[C@]3(CCC(=O)[C@H]32)[C@@H](C)[C@@H]1O endpoint_name=MIC value_reported="128 µg/mL"
smiles_representation=C=C[C@]1(C)C[C@@H](OC(=O)CSc2nc(-c3cc[n+](Cc4ccc(Br)cc4)cc3)cs2)[C@]2(C)[C@H](C)CC[C@]3(CCC(=O)[C@H]32)[C@@H](C)[C@@H]1O endpoint_name=MIC value_reported="0.5 µg/mL"

Let us examine a further case.
Query the reported MIC for Staphylococcus aureus ATCC 29213; item: "C=C[C@]1(C)C[C@@H](OC(=O)CSc2nc(-c3cc[n+](Cc4ccc(-c5ccccc5)cc4)cc3)cs2)[C@]2(C)[C@H](C)CC[C@]3(CCC(=O)[C@H]32)[C@@H](C)[C@@H]1O"
0.5 µg/mL

* * *

- Tested on: Acinetobacter baumannii ATCC 19606
- ASSAY OVERVIEW: MIC, microbroth dilution, standard strains
- Format: cell-based
- RECORDED CONDITIONS: ATCC19606, read-out: Minimum inhibitory concentration
ENDPOINT NAME: MIC (µg/mL)
Dear colleague, please return just the value in µg/mL, with no unit written.

Solved cases below.
compound="C=C[C@]1(C)C[C@@H](OC(=O)CS[C@@H]2C[C@H]3CC[C@@H](C2)N3C)[C@]2(C)[C@H](C)CC[C@]3(CCC(=O)[C@H]32)[C@@H](C)[C@@H]1O [Retapamulin, retapamulin, reference compound]" target="Acinetobacter baumannii ATCC 19606" measurement_units=µg/mL value_reported=16
compound="C=C[C@]1(C)C[C@@H](OC(=O)CSC(C)(C)CNC(=O)[C@H](N)C(C)C)[C@]2(C)[C@H](C)CC[C@]3(CCC(=O)[C@H]32)[C@@H](C)[C@@H]1O [Valnemulin, valnemulin, reference compound]" target="Acinetobacter baumannii ATCC 19606" measurement_units=µg/mL value_reported=2
compound="C=C[C@]1(C)C[C@@H](OC(=O)CSc2nc(-c3cc[n+](Cc4ccccc4)cc3)cs2)[C@]2(C)[C@H](C)CC[C@]3(CCC(=O)[C@H]32)[C@@H](C)[C@@H]1O [Compound 1]" target="Acinetobacter baumannii ATCC 19606" measurement_units=µg/mL value_reported=4

Let us examine a further case.
Would you mind telling me what MIC value was observed for C=C[C@]1(C)C[C@@H](OC(=O)CSc2nc(-c3cc[n+](Cc4ccc(C#N)cc4)cc3)cs2)[C@]2(C)[C@H](C)CC[C@]3(CCC(=O)[C@H]32)[C@@H](C)[C@@H]1O [Compound 8] ?
32

* * *

- ASSAY OVERVIEW: physchem
- RECORDED CONDITIONS: organic solvent or mixture, thermodynamic from solid
Counter-ions that a name gives are not always drawn.
Reported solubility values for the following compounds.
Dear colleague, please return just the value in mg/mL, with no unit written.

compound=C=C[C@]1(C)C[C@@H](OC(=O)CSc2nc(-c3cc[n+](Cc4ccc(C)cc4)cc3)cs2)[C@]2(C)[C@H](C)CC[C@]3(CCC(=O)[C@H]32)[C@@H](C)[C@@H]1O value_reported=13.2
compound=C=C[C@]1(C)C[C@@H](OC(=O)CSc2nc(-c3cc[n+](Cc4ccc([N+](=O)[O-])cc4)cc3)cs2)[C@]2(C)[C@H](C)CC[C@]3(CCC(=O)[C@H]32)[C@@H](C)[C@@H]1O value_reported=11.3
compound="C=C[C@]1(C)C[C@@H](OC(=O)CS[C@@H]2C[C@H]3CC[C@@H](C2)N3C)[C@]2(C)[C@H](C)CC[C@]3(CCC(=O)[C@H]32)[C@@H](C)[C@@H]1O [Retapamulin hydrochloride, retapamulin hydrochloride, reference compound]" value_reported=1.15

Would you mind telling me what solubility value was observed for "C=C[C@]1(C)C[C@@H](OC(=O)CSc2nc(-c3cc[n+](Cc4ccc(OC)cc4)cc3)cs2)[C@]2(C)[C@H](C)CC[C@]3(CCC(=O)[C@H]32)[C@@H](C)[C@@H]1O" ?
11.9

* * *

- ASSAY OVERVIEW: physchem
- RECORDED CONDITIONS: pH 7, water, thermodynamic from solid
Structures can show the parent of a compound that is named as a salt.
Reported solubility values for the following compounds.
Dear colleague, please return just the value in µg/mL, with no unit written.

Solved cases below.
compound="C=C[C@]1(C)C[C@@H](OC(=O)CS[C@@H]2C[C@H]3CC[C@@H](C2)N3C)[C@]2(C)[C@H](C)CC[C@]3(CCC(=O)[C@H]32)[C@@H](C)[C@@H]1O [Retapamulin hydrochloride, retapamulin hydrochloride, reference compound]" endpoint_name=solubility value_reported=120
compound="C=C[C@]1(C)C[C@@H](OC(=O)CSc2nc(-c3cc[n+](Cc4ccc(C)cc4)cc3)cs2)[C@]2(C)[C@H](C)CC[C@]3(CCC(=O)[C@H]32)[C@@H](C)[C@@H]1O [Compound 2]" endpoint_name=solubility value_reported=2020
compound="C=C[C@]1(C)C[C@@H](OC(=O)CSc2nc(-c3cc[n+](Cc4ccc(OC)cc4)cc3)cs2)[C@]2(C)[C@H](C)CC[C@]3(CCC(=O)[C@H]32)[C@@H](C)[C@@H]1O [Compound 4]" endpoint_name=solubility value_reported=2320

Would you mind telling me what solubility value was observed for C=C[C@]1(C)C[C@@H](OC(=O)CSc2nc(-c3cc[n+](Cc4ccc([N+](=O)[O-])cc4)cc3)cs2)[C@]2(C)[C@H](C)CC[C@]3(CCC(=O)[C@H]32)[C@@H](C)[C@@H]1O [Compound 7] ?
2540

* * *

Reported log10 of MIC values for the following molecules.
- Test system: Salmonella ATCC 14028
- ASSAY OVERVIEW: MIC, microbroth dilution, standard strains
- Format: cell-based
- RECORDED CONDITIONS: ATCC14028, ATCC 14028, read-out: Minimum inhibitory concentration
Please be aware that the numbers have been log10-transformed from MIC in mg/L.

molecule=C=C[C@]1(C)C[C@@H](OC(=O)CSc2nc(-c3cc[n+](Cc4ccc(C)cc4)cc3)cs2)[C@]2(C)[C@H](C)CC[C@]3(CCC(=O)[C@H]32)[C@@H](C)[C@@H]1O value_reported=0.30

Would you mind telling me what log10 of MIC value was observed for "C=C[C@]1(C)C[C@@H](OC(=O)CSc2nc(-c3cc[n+](Cc4ccc([N+](=O)[O-])cc4)cc3)cs2)[C@]2(C)[C@H](C)CC[C@]3(CCC(=O)[C@H]32)[C@@H](C)[C@@H]1O" ?
0.30

What do you have for "C=C[C@]1(C)C[C@@H](OC(=O)CSc2nc(-c3cc[n+](Cc4ccc(OC(F)(F)F)cc4)cc3)cs2)[C@]2(C)[C@H](C)CC[C@]3(CCC(=O)[C@H]32)[C@@H](C)[C@@H]1O" ?
0.60

What do you have for "C=C[C@]1(C)C[C@@H](OC(=O)CSc2nc(-c3cc[n+](Cc4ccc(Cl)cc4)cc3)cs2)[C@]2(C)[C@H](C)CC[C@]3(CCC(=O)[C@H]32)[C@@H](C)[C@@H]1O" ?
0.30

* * *

- Test system: Salmonella ATCC 14028
- ASSAY OVERVIEW: MIC, microbroth dilution, standard strains
- Format: cell-based
- RECORDED CONDITIONS: ATCC14028, ATCC 14028, read-out: Minimum inhibitory concentration
ENDPOINT NAME: log10 MIC (log10 of the value in mg/L)
Please be aware that the numbers have been log10-transformed from MIC in mg/L.

compound=C=C[C@]1(C)C[C@@H](OC(=O)CSc2nc(-c3cc[n+](Cc4cc(OC)cc(OC)c4)cc3)cs2)[C@]2(C)[C@H](C)CC[C@]3(CCC(=O)[C@H]32)[C@@H](C)[C@@H]1O value_reported=1.20
compound=C=C[C@]1(C)C[C@@H](OC(=O)CSc2nc(-c3cc[n+](Cc4ccc(C(F)(F)F)cc4)cc3)cs2)[C@]2(C)[C@H](C)CC[C@]3(CCC(=O)[C@H]32)[C@@H](C)[C@@H]1O value_reported=0.30
compound=C=C[C@]1(C)C[C@@H](OC(=O)CSc2nc(-c3cc[n+](Cc4ccc(OC)cc4)cc3)cs2)[C@]2(C)[C@H](C)CC[C@]3(CCC(=O)[C@H]32)[C@@H](C)[C@@H]1O value_reported=-0.30
compound=C=C[C@]1(C)C[C@@H](OC(=O)CSc2nc(-c3cc[n+](Cc4cc(C)cc(C)c4)cc3)cs2)[C@]2(C)[C@H](C)CC[C@]3(CCC(=O)[C@H]32)[C@@H](C)[C@@H]1O value_reported=1.20
compound=C=C[C@]1(C)C[C@@H](OC(=O)CSc2nc(-c3cc[n+](Cc4cc(F)cc(F)c4)cc3)cs2)[C@]2(C)[C@H](C)CC[C@]3(CCC(=O)[C@H]32)[C@@H](C)[C@@H]1O value_reported=1.20

Would you mind telling me what log10 MIC value was observed for C=C[C@]1(C)C[C@@H](OC(=O)CSCCN(CC)CC)[C@]2(C)[C@H](C)CC[C@]3(CCC(=O)[C@H]32)[C@@H](C)[C@@H]1O [Tiamulin, tiamulin, reference compound] ?
2.11

What do you have for "C=C[C@]1(C)C[C@@H](OC(=O)CSc2nc(-c3cc[n+](Cc4ccc(F)cc4)cc3)cs2)[C@]2(C)[C@H](C)CC[C@]3(CCC(=O)[C@H]32)[C@@H](C)[C@@H]1O" ?
0.00

What do you have for "C=C[C@]1(C)C[C@@H](OC(=O)CSc2nc(-c3cc[n+](Cc4ccc(Br)cc4)cc3)cs2)[C@]2(C)[C@H](C)CC[C@]3(CCC(=O)[C@H]32)[C@@H](C)[C@@H]1O" ?
0.60
